Catalogue of GI50 readings, one per entry.
system: VCaP cells; experiment: Cellular growth inhibition assay for VCaP cells; type: cell-based; conditions: Homo sapiens, 72 hours, CellTiter-Glo 2.0

CCc1cnn2c(NCc3ccc(N4CC(N5CCC(C6CCN(c7ncc(C(=O)N[C@H]8C(C)(C)[C@H](Oc9ccc(C#N)c(Cl)c9)C8(C)C)cn7)CC6)CC5)C4)nc3)cc(N3CCCC[C@H]3CCO)nc12 | 100 to 1000 nM

Data request, read-out GI50, for `CCc1cnn2c(NCc3ccc(OCCOCC4CCN(CC5CCN(c6ncc(C(=O)N[C@H]7C(C)(C)[C@H](Oc8ccc(C#N)c(Cl)c8)C7(C)C)cn6)CC5)CC4)nc3)cc(N3CCCC[C@H]3CCO)nc12`
< 100 nM

Same thing, different compound: `CCc1cnn2c(NCc3ccc(OCCC4CCN(CC5CCN(c6ncc(C(=O)N[C@H]7C(C)(C)[C@H](Oc8ccc(C#N)c(Cl)c8)C7(C)C)cn6)CC5)CC4)nc3)cc(N3CCCC[C@H]3CCO)nc12`
< 100 nM

Same thing, different compound: `CCc1cnn2c(NCc3ccc(OCCCN4CCN(CC5CCN(c6ccc(C(=O)N[C@H]7C(C)(C)[C@H](Oc8ccc(C#N)c(Cl)c8)C7(C)C)cn6)CC5)CC4)nc3)cc(N3CCCC[C@@H]3CCO)nc12`
< 100 nM

Same thing, different compound: `CCc1cnn2c(NCc3ccc(N(C)CCCN4CCC(C5CN(c6ncc(C(=O)N[C@H]7C(C)(C)[C@H](Oc8ccc(C#N)c(Cl)c8)C7(C)C)cn6)C5)CC4)nc3)cc(N3CCCC[C@H]3CCO)nc12`
100 to 1000 nM

###

Catalogue of pKd readings, one per entry.
molecular target: androgen receptor (Homo sapiens); construct: endogenous in cells; assay: Binding affinity to androgen receptor ([3H]methyltrienolone radioligand, cell cytosol); details: Table 6
Sequence (P10275 whole entry): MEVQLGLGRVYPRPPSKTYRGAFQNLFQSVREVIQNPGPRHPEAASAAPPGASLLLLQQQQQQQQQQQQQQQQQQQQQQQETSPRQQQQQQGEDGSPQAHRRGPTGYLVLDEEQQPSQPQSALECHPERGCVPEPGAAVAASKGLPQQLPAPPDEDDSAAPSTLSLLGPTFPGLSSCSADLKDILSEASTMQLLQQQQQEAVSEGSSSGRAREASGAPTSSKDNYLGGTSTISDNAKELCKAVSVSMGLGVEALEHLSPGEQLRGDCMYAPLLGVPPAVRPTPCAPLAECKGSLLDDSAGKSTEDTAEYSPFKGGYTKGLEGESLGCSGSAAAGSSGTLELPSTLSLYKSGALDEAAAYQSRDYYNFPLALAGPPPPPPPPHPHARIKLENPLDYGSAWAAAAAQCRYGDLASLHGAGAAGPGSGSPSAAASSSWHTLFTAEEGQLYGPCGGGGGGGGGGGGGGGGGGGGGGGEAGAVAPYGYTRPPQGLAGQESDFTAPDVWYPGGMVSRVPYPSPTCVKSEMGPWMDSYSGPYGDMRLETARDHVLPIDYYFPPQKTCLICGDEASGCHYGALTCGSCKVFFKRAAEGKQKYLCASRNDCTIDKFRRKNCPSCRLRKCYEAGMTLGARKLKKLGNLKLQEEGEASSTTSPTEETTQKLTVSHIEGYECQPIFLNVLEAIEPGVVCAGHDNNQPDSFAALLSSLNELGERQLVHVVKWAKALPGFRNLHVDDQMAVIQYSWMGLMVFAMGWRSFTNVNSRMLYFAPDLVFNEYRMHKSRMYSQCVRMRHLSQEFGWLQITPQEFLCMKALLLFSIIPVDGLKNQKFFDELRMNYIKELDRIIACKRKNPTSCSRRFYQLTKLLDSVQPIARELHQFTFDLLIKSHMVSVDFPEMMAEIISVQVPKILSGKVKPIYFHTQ
pKd: −log10 of the molar value.

Sample answers from the record:
CCc1cnn2c(NCc3ccc(OCCN(C)c4ncc(C(=O)N[C@H]5C(C)(C)[C@H](Oc6ccc(C#N)c(Cl)c6)C5(C)C)cn4)nc3)cc(N3CCCC[C@H]3CCO)nc12 [Compound I-1] | > 7.30
CCc1cnn2c(NCc3ccc(=O)n(CCOCCOCCOCCOCCOCCOCCN(C)c4ncc(C(=O)N[C@H]5C(C)(C)[C@H](Oc6ccc(C#N)c(Cl)c6)C5(C)C)cn4)c3)cc(N3CCCC[C@H]3CCO)nc12 [Compound I-4] | > 7.30
CCc1cnn2c(NCc3ccc(OCCCN4CCN(CCCN(C)c5ncc(C(=O)N[C@H]6C(C)(C)[C@H](Oc7ccc(C#N)c(Cl)c7)C6(C)C)cn5)CC4)nc3)cc(N3CCCC[C@H]3CCO)nc12 [Compound I-6] | > 7.30
CC1(C)[C@H](NC(=O)c2cnc(N3CCC(OCCNS(=O)(=O)c4ccc(Nc5ncc(Br)c(Nc6cccc(F)c6C(N)=O)n5)cc4)CC3)nc2)C(C)(C)[C@H]1Oc1ccc(C#N)c(Cl)c1 [Compound I-13] | > 7.30
CCc1cnn2c(NCc3ccc(OCCOCCOCCOC4CCN(c5ccc(C(=O)N[C@H]6C(C)(C)[C@H](Oc7ccc(C#N)c(Cl)c7)C6(C)C)nn5)CC4)nc3)cc(N3CCCC[C@H]3CCO)nc12 [Compound I-44] | 6.30 to 7.30

Data request, read-out pKd, for CCc1cnn2c(N(C)Cc3ccc(OCCOCCOCCOC4CCN(c5ncc(C(=O)N[C@H]6C(C)(C)[C@H](Oc7ccc(C#N)c(Cl)c7)C6(C)C)cn5)CC4)nc3)cc(N3CCCC[C@H]3CCO)nc12 [Compound I-25]
> 7.30

Same thing, different compound: CCc1cnn2c(NCc3ccc(OCCCN4CCN(CCCOC5CCN(c6ncc(C(=O)N[C@H]7C(C)(C)[C@H](Oc8ccc(C#N)c(Cl)c8)C7(C)C)cn6)CC5)CC4)nc3)cc(N3CCCC[C@H]3CCO)nc12 [Compound I-11]
> 7.30

Same thing, different compound: CCc1cnn2c(NCc3ccc(OCCCN4CCN(CC5CCN(c6ccc(C(=O)N[C@H]7C(C)(C)[C@H](Oc8ccc(C#N)c(Cl)c8)C7(C)C)cc6)CC5)CC4)nc3)cc(N3CCCC[C@@H]3CCO)nc12 [II-1]
> 7.30

Same thing, different compound: CCc1cnn2c(NCc3ccc(OCCOCCOCCOCCOCCOCCOCCN(C)c4ncc(C(=O)N[C@H]5C(C)(C)[C@H](Oc6ccc(C#N)c(Cl)c6)C5(C)C)cn4)nc3)cc(N3CCCC[C@H]3CCO)nc12 [Compound I-5]
> 7.30

###

Catalogue of GI50 readings, one per entry.
test system: T47D cells; experiment: Cellular growth inhibition assay for T47D cells; type: cell-based; conditions: Homo sapiens, 72 hours, CellTiter-Glo 2.0

CN(CCNS(=O)(=O)c1ccc(Nc2ncc(Br)c(Nc3cccc(F)c3C(N)=O)n2)cc1)c1ncc(C(=O)N[C@H]2C(C)(C)[C@H](Oc3ccc(C#N)c(Cl)c3)C2(C)C)cn1 | < 500 nM
CC1(C)[C@H](NC(=O)c2cnc(N3CCC(OCCNS(=O)(=O)c4ccc(Nc5ncc(Br)c(Nc6cccc(F)c6C(N)=O)n5)cc4)CC3)nc2)C(C)(C)[C@H]1Oc1ccc(C#N)c(Cl)c1 | < 500 nM

What GI50 appears in the records for this compound with T47D cells? `CCc1cnn2c(NCc3ccc(N(C)CCOC4CCN(C5CN(c6ncc(C(=O)N[C@H]7C(C)(C)[C@H](Oc8ccc(C#N)c(Cl)c8)C7(C)C)cn6)C5)CC4)nc3)cc(N3CCCC[C@H]3CCO)nc12`
< 500 nM

###

biological target: androgen receptor (Homo sapiens); construct: endogenous in cells; test: Binding affinity to androgen receptor ([3H]methyltrienolone radioligand, cell cytosol); conditions: Table 6
Catalogue of Kd readings, one per entry.

CCc1cnn2c(NCc3ccc(OCCCN4CCN(CC5CCN(c6ccc(C(=O)N[C@H]7C(C)(C)[C@H](Oc8ccc(C#N)c(Cl)c8)C7(C)C)cn6)CC5)CC4)nc3)cc(N3CCCC[C@@H]3CCO)nc12 [Compound I-55] | < 50 nM

Data request, read-out Kd, for CCc1cnn2c(NCc3ccc(OCCOCCOCCOC4CCN(c5ncc(C(=O)N[C@H]6C(C)(C)[C@H](Oc7ccc(C#N)c(Cl)c7)C6(C)C)cn5)CC4)nc3)cc(N3CCCC[C@H]3CCO)nc12 [Compound I-8]
< 50 nM

Same thing, different compound: CCc1cnn2c(NCc3ccc(COCCN4CCN(CC5CCN(c6ncc(C(=O)N[C@H]7C(C)(C)[C@H](Oc8ccc(C#N)c(Cl)c8)C7(C)C)cn6)CC5)CC4)nc3)cc(N3CCCC[C@H]3CCO)nc12 [Compound I-42]
< 50 nM

###

Catalogue of GI50 readings, one per entry.
tested on: VCaP cells; assay: Cellular growth inhibition assay for VCaP cells; type: cell-based; details: Homo sapiens, 72 hours, CellTiter-Glo 2.0

Sample answers from the record:
CCc1cnn2c(NCc3ccc(OCCOCCCOC4CCN(c5ncc(C(=O)N[C@H]6C(C)(C)[C@H](Oc7ccc(C#N)c(Cl)c7)C6(C)C)cn5)CC4)nc3)cc(N3CCCC[C@H]3CCO)nc12 | 100 to 1000 nM
CCc1cnn2c(NCc3ccc(OCCCCN4CCN(CC5CCN(c6ncc(C(=O)N[C@H]7C(C)(C)[C@H](Oc8ccc(C#N)c(Cl)c8)C7(C)C)cn6)CC5)CC4)nc3)cc(N3CCCC[C@H]3CCO)nc12 | < 100 nM
CCc1cnn2c(NCc3ccc(OCCOCCOCCOCCOCCOCCOCCOC4CCN(c5ncc(C(=O)N[C@H]6C(C)(C)[C@H](Oc7ccc(C#N)c(Cl)c7)C6(C)C)cn5)CC4)nc3)cc(N3CCCC[C@H]3CCO)nc12 | < 100 nM
CCc1cnn2c(NCc3ccc(OCCOCCOCCOC4CCN(c5ncc(C(=O)N[C@H]6C(C)(C)[C@H](Oc7ccc(C#N)c(Cl)c7)C6(C)C)cn5)CC4)nc3)cc(N3CCCC[C@H]3CCO)nc12 | < 100 nM

Kindly consider the entry below.
Data request, read-out GI50, for `CCc1cnn2c(NCc3ccc(N(C)CC4CCN(CC5CCN(c6ncc(C(=O)N[C@H]7C(C)(C)[C@H](Oc8ccc(C#N)c(Cl)c8)C7(C)C)cn6)CC5)CC4)nc3)cc(N3CCCC[C@H]3CCO)nc12`
100 to 1000 nM

###

test system: VCaP cells; test: Cellular growth inhibition assay for VCaP cells; format: cell-based; conditions: Homo sapiens, 72 hours, CellTiter-Glo 2.0
readoutLabel: GI50

Sample answers from the record:
CCc1cnn2c(NCc3ccc(OCCN4CCN(CC5CCN(c6ncc(C(=O)N[C@H]7C(C)(C)[C@H](Oc8ccc(C#N)c(Cl)c8)C7(C)C)cn6)CC5)CC4)nc3)cc(-c3ccccc3)nc12 | > 3500 nM
CC1(C)[C@H](NC(=O)c2cnc(N3CCC(OCCN4C/C=C/CCOc5cccc(c5)-c5ccnc(n5)Nc5cccc(c5)C4)CC3)nc2)C(C)(C)[C@H]1Oc1ccc(C#N)c(Cl)c1 | > 3500 nM
CCc1cnn2c(NCc3ccc(OCC4CCN(CC5CCN(c6ncc(C(=O)N[C@H]7C(C)(C)[C@H](Oc8ccc(C#N)c(Cl)c8)C7(C)C)cn6)CC5)CC4)nc3)cc(N3CCCC[C@H]3CCO)nc12 | < 100 nM
CCc1cnn2c(NCc3ccc(OCCCN4CCN(CC5CCN(c6ccc(C(=O)N[C@H]7C(C)(C)[C@H](Oc8ccc(C#N)c(Cl)c8)C7(C)C)cc6)CC5)CC4)nc3)cc(N3CCCC[C@@H]3CCO)nc12 | < 100 nM
CCc1cnn2c(NCc3ccc(OCCCCN4CCN(CC5CCN(c6ncc(C(=O)N[C@H]7C(C)(C)[C@H](Oc8ccc(C#N)c(Cl)c8)C7(C)C)cn6)CC5)CC4)nc3)cc(N3CCCC(F)(F)C3)nc12 | > 3500 nM
CCc1cnn2c(NCc3ccc(N4CCC(OCCC5CCN(c6ncc(C(=O)N[C@H]7C(C)(C)[C@H](Oc8ccc(C#N)c(Cl)c8)C7(C)C)cn6)CC5)C4)nc3)cc(N3CCCC[C@H]3CCO)nc12 (stereo partly shown) | 100 to 1000 nM

Kindly consider the entry below.
Data request, read-out GI50, for `CC(C)n1cc(-c2ccnc3[nH]c(C4CCN(CCOCCOCCOCCOC5CCN(c6ncc(C(=O)N[C@H]7C(C)(C)[C@H](Oc8ccc(C#N)c(Cl)c8)C7(C)C)cn6)CC5)CC4)cc23)ccc1=O`
< 100 nM

Cited source: patent US20260159520A1
